Record form. Attribute: melting point. Fill in for each entry.

// query Look up melting point: Nn1c(SCC(=O)Nc2cc(-c3c[nH]c4ccccc34)n[nH]2)nnc1-c1ccccc1 [Compound 11k]
// result > 300 °C

// query If you can, please state the reported melting point value of Nn1c(SCC(=O)Nc2cc(-c3c[nH]c4ccccc34)n[nH]2)nnc1-c1ccccc1Br [Compound 11c] .
// result 194 to 195 °C

// query Value lookup for melting point; key = Nn1c(SCC(=O)Nc2cc(-c3c[nH]c4ccccc34)n[nH]2)nnc1-c1cc(Cl)cc(Cl)c1 [Compound 11a]
// result 258 to 260 °C

// query If you can, please state the reported melting point value of O=C(CSc1nnc(-c2cccnc2)s1)Nc1cc(-c2c[nH]c3ccccc23)n[nH]1 [Compound 10h] .
// result 233 to 235 °C

// query So what does the record say about melting point for COc1cc(-c2nnc(SCC(=O)Nc3cc(-c4c[nH]c5ccccc45)n[nH]3)n2N)cc(OC)c1OC [Compound 11b] ?
// result 259 to 261 °C

// query Form field: reported melting point of Nn1c(SCC(=O)Nc2cc(-c3c[nH]c4ccccc34)n[nH]2)nnc1-c1ccc(Cl)cc1 [Compound 11f]
// result 214 to 215 °C

// query Recorded melting point for Nn1c(SCC(=O)Nc2cc(-c3c[nH]c4ccccc34)n[nH]2)nnc1-c1ccccc1F [Compound 11g] , please?
// result 226 to 227 °C

// query Given the molecule Nc1ccc(-c2nnc(SCC(=O)Nc3cc(-c4c[nH]c5ccccc45)n[nH]3)n2N)cc1 [Compound 11l] , what is its reported melting point?
// result 213 to 215 °C

// query Sample O=C(CSc1nnc(-c2ccccn2)s1)Nc1cc(-c2c[nH]c3ccccc23)n[nH]1 [Compound 10i] — what was its melting point?
// result 226 to 228 °C

// query What melting point value was documented for this molecule, Nn1c(SCC(=O)Nc2cc(-c3c[nH]c4ccccc34)n[nH]2)nnc1-c1ccc(Br)cc1 [Compound 11m] ?
// result 270 to 272 °C

// query Sample Nn1c(SCC(=O)Nc2cc(-c3c[nH]c4ccccc34)n[nH]2)nnc1-c1ccncc1 [Compound 11o] — what was its melting point?
// result 170 to 172 °C

// query Name the reported melting point value associated with the molecule O=C(CSc1nnc(Cc2ccc(Cl)cc2)s1)Nc1cc(-c2c[nH]c3ccccc23)n[nH]1 [Compound 10d]
// result 151 to 153 °C

// query I am curious: what melting point value has been reported for Nn1c(SCC(=O)Nc2cc(-c3c[nH]c4ccccc34)n[nH]2)nnc1-c1ccccn1 [Compound 11i] ?
// result 208 to 210 °C

----------
- Tested on: human non-small cell lung cancer cells (A549)
- TEST SUMMARY: MTT antiproliferative assay, A549
- Type: cell-based
- CONDITION SET: A549, 10 μM, read-out: Inhibition rate, A549
- Protocol: A549, PC-3, HepG2 and K562 cells were purchased from the Kunming cell bank of the Chinese academy of sciences. All cell lines were cultured in DMEM or RPMI 1640 complete medium. Logarithmic growth cells were cultured in 96-well plates at a concentration of 10^4 cells per well and pre-cultured for 24 h before adding test compounds. […]
Short version: inhibition at 10 µM at least 90% is Condition met, less is Condition not met.

// query Threshold query (inhibition at 10 µM >= 90%) on Nn1c(SCC(=O)Nc2cc(-c3c[nH]c4ccccc34)n[nH]2)nnc1-c1ccccn1 [Compound 11i]
// result Condition met

// query Does the reported inhibition at 10 µM for Nn1c(SCC(=O)Nc2cc(-c3c[nH]c4ccccc34)n[nH]2)nnc1-c1ccc(F)cc1 [Compound 11p] fall at or above the 90% mark?
// result Condition not met

// query Can Nn1c(SCC(=O)Nc2cc(-c3c[nH]c4ccccc34)n[nH]2)nnc1-c1ccccc1Cl [Compound 11j] be said to have inhibition at 10 µM at or above 90%?
// result Condition not met

// query Answer whether inhibition at 10 µM of O=C(CSc1nnc(-c2cc(Cl)cc(Cl)c2)s1)Nc1cc(-c2c[nH]c3ccccc23)n[nH]1 [Compound 10a] is greater than or equal to 90%.
// result Condition not met

// query Confirm if inhibition at 10 µM reported for the molecule COc1ccc(-c2nnc(SCC(=O)Nc3cc(-c4c[nH]c5ccccc45)n[nH]3)n2N)cc1 [Compound 11e] is 90% or above.
// result Condition not met

// query Would you say Nn1c(SCC(=O)Nc2cc(-c3c[nH]c4ccccc34)n[nH]2)nnc1-c1ccc(Br)cc1 [Compound 11m] shows inhibition at 10 µM at minimum 90%?
// result Condition not met
